Attribution: patent US20070281938A1

Ki tested on human 11-β-hydroxysteroid dehydrogenase type-1 enzyme (11-β-HSD1) (Homo sapiens): recorded values
Sequence (P28845 whole entry): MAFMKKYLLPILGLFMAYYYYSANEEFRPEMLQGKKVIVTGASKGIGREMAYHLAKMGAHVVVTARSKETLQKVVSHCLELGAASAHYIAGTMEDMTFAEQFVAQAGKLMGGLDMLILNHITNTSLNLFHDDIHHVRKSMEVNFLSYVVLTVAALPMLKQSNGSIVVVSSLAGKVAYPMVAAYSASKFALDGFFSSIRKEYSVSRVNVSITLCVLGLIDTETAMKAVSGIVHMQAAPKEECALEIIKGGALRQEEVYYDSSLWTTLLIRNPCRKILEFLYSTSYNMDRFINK
Dear colleague, please return just the value in nM, with no unit written.

Query block: For CC(C)C1SC(NC2(c3ccc(Cl)cc3)CCC2)=NC1=O (stereo not drawn) [Example 48] , what is its reported Ki?
Result block: 174

Query block: For CC1(C)SC(NCC2CCCCC2)=NC1=O [Example 14] , what is its reported Ki?
Result block: 107

Query block: For O=C1N=C(NC2CCCCCC2)SC12CCC2 [Example 10] , what is its reported Ki?
Result block: 250
